# studyTarget: HLA-A*0201 (Homo sapiens, UniProt P04439, D140Y/D185E/D98H/E176V/E277Q/G131W/G231S/I119V/I121R/I166T/I218V/L300P/L318F/N151K/N90K/P208A/P217A/Q86G/Q94H/R138H/R169H/T345S)
# protocolConditions: ratio of peptide to reference peptide (HIVpol 589) concentration inducing 20% of fluorescence of 100 μM reference; T2 cells; lower RA = stronger binding; mean of at least three experiments
Ends that are not written are not given here.
endpointLabel: RA (relative affinity)
Write the number on its own, no unit after it.

Examples with answers:
VLLLVLAGV [p546, VLLLVLAGV] | 1.4
IMNDMPIYM [p58, IMNDMPIYM] | 1
YMPIYMYSV [p61Y, YMPIYMYSV] | 1.5

Let us move to another entry and its RA (relative affinity).
Query: Given the sequence VLAGVGFFI [p550, VLAGVGFFI] , write its reported RA (relative affinity).
Response: 1
